In this section we review reported abundance fitness values for a set of variants.
B1: Ankyrin-2, residues 3571 to 3650; numbered along this chain, Q01484 (parent)
chain: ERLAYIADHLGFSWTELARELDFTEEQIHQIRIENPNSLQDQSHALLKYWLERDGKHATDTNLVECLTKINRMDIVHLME

- Variants of: B1
- protocol_summary: abundance fitness (aPCA) (normalised: wild type 0, dead -1); higher = more abundant; growth selection in yeast, the domain comes from the species named
- recorded_conditions: Homo sapiens

{"mutant_id": "Q42P", "abundance fitness": -0.768}
{"mutant_id": "P36G", "abundance fitness": -0.045}
{"mutant_id": "R19F", "abundance fitness": -0.195}
{"mutant_id": "R32K", "abundance fitness": 0.177}
{"mutant_id": "G55Q", "abundance fitness": 0.008}
{"mutant_id": "K48E", "abundance fitness": -0.027}
{"mutant_id": "Y5C", "abundance fitness": 0.137}
{"mutant_id": "L47I", "abundance fitness": -0.061}
{"mutant_id": "A18G", "abundance fitness": -0.128}
{"mutant_id": "H44Q", "abundance fitness": -0.062}
{"mutant_id": "N35Q", "abundance fitness": 0.066}
{"mutant_id": "T15N", "abundance fitness": -0.038}
{"mutant_id": "I31Q", "abundance fitness": -0.743}
{"mutant_id": "N37T", "abundance fitness": -0.093}
{"mutant_id": "R2S", "abundance fitness": 0.026}
{"mutant_id": "L17H", "abundance fitness": -0.91}
{"mutant_id": "N37A", "abundance fitness": 0.043}
{"mutant_id": "E25V", "abundance fitness": -0.064}
{"mutant_id": "G11S", "abundance fitness": 0.015}
{"mutant_id": "I28V", "abundance fitness": -0.056}
{"mutant_id": "F12V", "abundance fitness": -0.045}
{"mutant_id": "H29I", "abundance fitness": -0.082}
{"mutant_id": "E26I", "abundance fitness": -0.045}
{"mutant_id": "E25G", "abundance fitness": -0.074}
{"mutant_id": "F12P", "abundance fitness": -0.168}
